test system: asparagus caterpillar; conditions: in vivo
Quick rule for you: mortality(%) asparagus caterpillar (500 μg/mL) at 30% or higher means true, lower means false.

{"molecule": "C=CCNC(=N[N+](=O)[O-])NN=CCCCCCC [Compound 47]", "class.assignment": "false"}

Dear colleague, could you confirm whether CCNC(=N[N+](=O)[O-])NN=CC(C)C [Compound 2] has mortality(%) asparagus caterpillar (500 μg/mL) at or above 30%?
true

One more molecule: CCCCC=NNC(=N[N+](=O)[O-])NCCC [Compound 51]
false

One more molecule: O=[N+]([O-])N=C(NCc1ccc(Cl)nc1)NN=Cc1ccc(Cl)cc1 [Compound 108]
true

One more molecule: CCCNC(=N[N+](=O)[O-])NN=Cc1ccccc1OC [Compound 73]
true

One more molecule: C#CCNC(=N[N+](=O)[O-])NN=Cc1ccccc1OC [Compound 77]
true

---

test system: myzus persicae; settings: in vivo
quantity.name: mortality(%) myzus persicae (600 μg/mL)
All answers are understood in %, so give the number only.

Please review the following examples before continuing.
{"smiles.code": "CCC=NNC(=N[N+](=O)[O-])NCCC", "tested.system": "myzus persicae", "uom": "%", "mortality(%) myzus persicae (600 μg/mL)": 78.3}
{"smiles.code": "COc1ccccc1C=NNC(=N[N+](=O)[O-])NCc1ccccc1", "tested.system": "myzus persicae", "uom": "%", "mortality(%) myzus persicae (600 μg/mL)": 92.8}
{"smiles.code": "CCCCC=NNC(=N[N+](=O)[O-])NCCC", "tested.system": "myzus persicae", "uom": "%", "mortality(%) myzus persicae (600 μg/mL)": 13.3}
{"smiles.code": "CC=CC=NNC(=N[N+](=O)[O-])NCC", "tested.system": "myzus persicae", "uom": "%", "mortality(%) myzus persicae (600 μg/mL)": 48.0}
{"smiles.code": "C#CCNC(=N[N+](=O)[O-])NN=CC=CC", "tested.system": "myzus persicae", "uom": "%", "mortality(%) myzus persicae (600 μg/mL)": 35.0}
{"smiles.code": "O=[N+]([O-])N=C(NCc1ccc(Cl)nc1)NN=Cc1ccccc1Cl", "tested.system": "myzus persicae", "uom": "%", "mortality(%) myzus persicae (600 μg/mL)": 22.0}
{"smiles.code": "CCC=NNC(=N[N+](=O)[O-])NCc1ccccc1", "tested.system": "myzus persicae", "uom": "%", "mortality(%) myzus persicae (600 μg/mL)": 18.8}
{"smiles.code": "CCC=NNC(=N[N+](=O)[O-])NCCCC", "tested.system": "myzus persicae", "uom": "%", "mortality(%) myzus persicae (600 μg/mL)": 1.5}
{"smiles.code": "O=[N+]([O-])N=C(NCc1ccc(Cl)nc1)NN=Cc1ccco1", "tested.system": "myzus persicae", "uom": "%", "mortality(%) myzus persicae (600 μg/mL)": 86.0}
{"smiles.code": "CCCNC(=N[N+](=O)[O-])NN=CC(C)C", "tested.system": "myzus persicae", "uom": "%", "mortality(%) myzus persicae (600 μg/mL)": 14.4}

Recorded mortality(%) myzus persicae (600 μg/mL) for `CCCNC(=N[N+](=O)[O-])NN=Cc1ccc(F)cc1` , please?
20.3

One more molecule: `CCNC(=N[N+](=O)[O-])NN=CC(C)C`
53.6

One more molecule: `CCCC=NNC(=N[N+](=O)[O-])NCCCC`
65.3

One more molecule: `C=CC=NNC(=N[N+](=O)[O-])NCC=C`
37.1

One more molecule: `COc1ccc(C=NNC(=N[N+](=O)[O-])NCc2ccc(Cl)nc2)cc1`
54.4

One more molecule: `C#CCNC(=N[N+](=O)[O-])NN=Cc1ccccc1OC`
4.2

One more molecule: `C#CCNC(=N[N+](=O)[O-])NN=CCC`
5.0

One more molecule: `CC=CC=NNC(=N[N+](=O)[O-])NC`
42.6

---

tested on: bemisia tabaci gennadius; conditions: in vivo
Listed here are molecules together with their documented mortality(%) bemisia tabaci gennadius (500 μg/mL).
All answers are understood in %, so give the number only.

Please review the following examples before continuing.
{"smiles.code": "CNC(=N[N+](=O)[O-])NN=Cc1ccc(F)cc1", "value.reported": 4.69}
{"smiles.code": "CCNC(=N[N+](=O)[O-])NN=Cc1ccc(OC)cc1", "value.reported": 24.56}
{"smiles.code": "CCNC(=N[N+](=O)[O-])NN=Cc1ccccc1Cl", "value.reported": 53.06}
{"smiles.code": "COc1ccc(C=NNC(=N[N+](=O)[O-])NCc2ccc(Cl)nc2)cc1", "value.reported": 3.77}

Recorded mortality(%) bemisia tabaci gennadius (500 μg/mL) for `CCNC(=N[N+](=O)[O-])NN=Cc1ccc(OCC)c(OC)c1` , please?
6.67

One more molecule: `O=[N+]([O-])N=C(NCc1ccccc1)NN=Cc1ccc(F)cc1`
3.77

One more molecule: `CCNC(=N[N+](=O)[O-])NN=Cc1ccc(F)cc1`
8.62

---

system: asparagus caterpillar; settings: in vivo
quantity.name: mortality(%) asparagus caterpillar (500 μg/mL)
All answers are understood in %, so give the number only.

Please review the following examples before continuing.
{"molecule": "C=CCNC(=N[N+](=O)[O-])NN=CC(C)C [Compound 5]", "tested.system": "asparagus caterpillar", "uom": "%", "value.reported": 30}
{"molecule": "C=CCNC(=N[N+](=O)[O-])NN=Cc1ccc(N(C)C)cc1 [Compound 72]", "tested.system": "asparagus caterpillar", "uom": "%", "value.reported": 50}
{"molecule": "C#CCNC(=N[N+](=O)[O-])NN=Cc1ccc(F)cc1 [Compound 102]", "tested.system": "asparagus caterpillar", "uom": "%", "value.reported": 50}
{"molecule": "C=CCNC(=N[N+](=O)[O-])NN=CC=C(C)CCC=C(C)C [Compound 20]", "tested.system": "asparagus caterpillar", "uom": "%", "value.reported": 50}
{"molecule": "CCOc1ccc(C=NNC(=N[N+](=O)[O-])NCc2ccccc2)cc1OC [Compound 98]", "tested.system": "asparagus caterpillar", "uom": "%", "value.reported": 10}
{"molecule": "CCNC(=N[N+](=O)[O-])NN=CC=C(C)CCC=C(C)C [Compound 17]", "tested.system": "asparagus caterpillar", "uom": "%", "value.reported": 40}

Which mortality(%) asparagus caterpillar (500 μg/mL) is reported with asparagus caterpillar for this entry: C#CCNC(=N[N+](=O)[O-])NN=CCCC [Compound 28] ?
70

One more molecule: CCCC=NNC(=N[N+](=O)[O-])NCc1ccc(Cl)nc1 [Compound 30]
40

One more molecule: CCCC=NNC(=N[N+](=O)[O-])NCCCC [Compound 26]
60

One more molecule: CC(C)C=NNC(=N[N+](=O)[O-])NCc1ccc(Cl)nc1 [Compound 8]
40

One more molecule: CCOc1ccc(C=NNC(=N[N+](=O)[O-])NC)cc1OC [Compound 95]
80

One more molecule: CCCCCCC=NNC(=N[N+](=O)[O-])NCCCC [Compound 46]
30

---

system: Helicoverpa armigera; settings: 500 μg/mL; 48 hours
Please use met for mortality(%) Helicoverpa armigera (500 μg/mL) under 40% and not met for everything else, ties included.

{"smiles.code": "CCCCC=NNC(=N[N+](=O)[O-])NCCC", "class.assignment": "met"}

Find out if reported mortality(%) Helicoverpa armigera (500 μg/mL) for `C=CCNC(=N[N+](=O)[O-])NN=CCC` is less than 40%
met

One more compound: `CCNC(=N[N+](=O)[O-])NN=CC(C)C`
not met

One more compound: `CC=CC=NNC(=N[N+](=O)[O-])NCCC`
not met

One more compound: `CCC=NNC(=N[N+](=O)[O-])NCCCC`
not met

---

tested on: myzus persicae; conditions: in vivo
Listed here are molecules together with their documented mortality(%) myzus persicae (600 μg/mL).
All answers are understood in %, so give the number only.

Please review the following examples before continuing.
{"smiles.code": "CC(C)=CCCC(C)=CC=NNC(=N[N+](=O)[O-])NCc1ccccc1", "mortality(%) myzus persicae (600 μg/mL)": 7.1}
{"smiles.code": "C=CCNC(=N[N+](=O)[O-])NN=CCCCC", "mortality(%) myzus persicae (600 μg/mL)": 81.0}
{"smiles.code": "C=CCNC(=N[N+](=O)[O-])NN=Cc1ccc(F)cc1", "mortality(%) myzus persicae (600 μg/mL)": 17.7}

Recorded mortality(%) myzus persicae (600 μg/mL) for `CNC(=N[N+](=O)[O-])NN=CC=C(C)CCC=C(C)C` , please?
31.4

One more molecule: `CCCCCCC=NNC(=N[N+](=O)[O-])NCc1ccc(Cl)nc1`
100

One more molecule: `CCCCNC(=N[N+](=O)[O-])NN=CC=C(C)CCC=C(C)C`
67.5

One more molecule: `C=CCNC(=N[N+](=O)[O-])NN=CC(C)C`
27.8

One more molecule: `CCCCC=NNC(=N[N+](=O)[O-])NCc1ccccc1`
49.2

One more molecule: `C=CCNC(=N[N+](=O)[O-])NN=Cc1ccccc1Cl`
96.0

One more molecule: `CCOc1ccc(C=NNC(=N[N+](=O)[O-])NC)cc1OC`
58.0

One more molecule: `C=CC=NNC(=N[N+](=O)[O-])NCCC`
8.3

One more molecule: `CCNC(=N[N+](=O)[O-])NN=Cc1ccc(N(C)C)cc1`
90.6
